Data provenance: paper PMC9837764

Experiment: Pharmacokinetics in mouse plasma
Format: in vivo, CD1 mice (Mus musculus)
Conditions: both sexes, CD1, mouse, plasma, po; mice; 550 mg/kg (p.o.)
quantity-kind: Cmax

{"compound": "c1coc(CNc2ncnc3[nH]cnc23)c1 [MB-905, N6-furfurylaminopurine]", "quantity-kind": "Cmax", "reported-value": "1050 ng/mL"}

###

Here the recorded EC50 is given for each entry.
Test system: SARS-CoV-2
Experiment: Combination of RdRp inhibitors with SARS-CoV-2 nsp14 inhibitors in infected Calu-3 cells, synergy
Assay type: cell-based
Settings: Severe acute respiratory syndrome coronavirus 2, Calu-3, read-out: EC50 mean

{"compound": "COC(=O)N[C@H](C(=O)N1CCC[C@H]1c1nc2cc([C@H]3CC[C@H](c4cc5nc([C@@H]6CCCN6C(=O)[C@@H](NC(=O)OC)[C@@H](C)OC)[nH]c5cc4F)N3c3cc(F)c(N4CCC(c5ccc(F)cc5)CC4)c(F)c3)c(F)cc2[nH]1)[C@@H](C)OC", "unit-name": "µM", "EC50": 0.7}
{"compound": "CC(C)C(=O)OC[C@H]1O[C@@H](n2ccc(NO)nc2=O)[C@H](O)[C@@H]1O [MK-4482, molnupiravir, reference compound]", "unit-name": "µM", "EC50": 0.8}
{"compound": "COC(=O)N[C@H](C(=O)N1CCC[C@H]1c1nc(-c2ccc(-c3ccc(-c4c[nH]c([C@@H]5CCCN5C(=O)[C@@H](NC(=O)OC)C(C)C)n4)cc3)cc2)c[nH]1)C(C)C", "unit-name": "µM", "EC50": 0.7}
